Form field: Binding AUC (one value per entry).
target: T1, recombinant SARS-CoV-2 Spike RBD domain, JN-1 variant (SARS-CoV-2); assay: ELISA on coated RBD
T1 construct: also called RBD JN-1 variant
property_name: Binding AUC

- binder: "SPK002M A1 antibody (antibody, human IgG1, kappa, V domains shown) VH: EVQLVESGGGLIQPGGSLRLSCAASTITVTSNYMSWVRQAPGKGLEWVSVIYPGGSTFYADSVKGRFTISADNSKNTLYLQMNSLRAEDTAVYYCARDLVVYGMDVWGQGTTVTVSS VL: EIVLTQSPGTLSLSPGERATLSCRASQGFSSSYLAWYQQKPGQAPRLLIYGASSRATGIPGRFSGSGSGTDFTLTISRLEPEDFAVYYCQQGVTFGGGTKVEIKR"
  property_name: "Binding AUC"
  result: 39
- binder: "SPK002M A2 antibody (antibody, human IgG1, kappa, V domains shown) VH: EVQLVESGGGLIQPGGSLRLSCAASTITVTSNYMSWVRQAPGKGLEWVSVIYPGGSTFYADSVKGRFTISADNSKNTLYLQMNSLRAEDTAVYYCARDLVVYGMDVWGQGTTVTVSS VL: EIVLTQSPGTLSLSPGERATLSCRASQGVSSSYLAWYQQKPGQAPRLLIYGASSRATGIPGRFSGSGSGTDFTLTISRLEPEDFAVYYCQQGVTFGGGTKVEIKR"
  property_name: "Binding AUC"
  result: 37
- binder: "SPK002M C3 antibody (antibody, human IgG1, kappa, V domains shown) VH: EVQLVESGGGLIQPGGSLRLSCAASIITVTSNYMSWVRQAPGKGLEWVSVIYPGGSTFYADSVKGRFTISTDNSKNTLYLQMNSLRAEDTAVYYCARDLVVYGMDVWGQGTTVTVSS VL: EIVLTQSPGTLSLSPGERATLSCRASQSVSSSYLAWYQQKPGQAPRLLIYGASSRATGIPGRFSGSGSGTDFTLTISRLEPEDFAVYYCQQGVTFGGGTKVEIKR"
  property_name: "Binding AUC"
  result: 29
- binder: "SPK002M A5 antibody (antibody, human IgG1, kappa, V domains shown) VH: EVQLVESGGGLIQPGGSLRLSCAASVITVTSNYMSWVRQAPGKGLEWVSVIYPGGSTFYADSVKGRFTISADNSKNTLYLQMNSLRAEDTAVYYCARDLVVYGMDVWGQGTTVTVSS VL: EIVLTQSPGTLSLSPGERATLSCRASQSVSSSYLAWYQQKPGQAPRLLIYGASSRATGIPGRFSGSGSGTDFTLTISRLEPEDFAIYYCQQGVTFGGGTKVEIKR"
  property_name: "Binding AUC"
  result: 32
- binder: "SPK002M A3 antibody (antibody, human IgG1, kappa, V domains shown) VH: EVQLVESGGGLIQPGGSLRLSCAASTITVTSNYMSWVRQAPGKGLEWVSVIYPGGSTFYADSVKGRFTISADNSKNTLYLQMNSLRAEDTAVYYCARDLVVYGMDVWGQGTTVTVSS VL: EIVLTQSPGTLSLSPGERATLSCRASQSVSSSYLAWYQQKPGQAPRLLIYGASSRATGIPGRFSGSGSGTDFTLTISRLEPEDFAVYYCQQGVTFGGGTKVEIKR"
  property_name: "Binding AUC"
  result: 26
